meta.source: patent US20230220053A1

Listed here are binders together with their documented kon.
Molecular target: S1-Fc (SARS-CoV-2 S1 protein, Fc fusion) (SARS-CoV-2, UniProt P0DTC2 16-685)
Experiment: SPR (Biacore T200), S1 captured on anti-human Fc chip, scFv injected
Supply the numeric figure in M⁻¹ s⁻¹, leaving out any unit text.

binder | unit-label | kon
2020EP71-E04 scFv (scFv) scFv: QVQLVQSGGGVVQPGRSLRLSCAASGFTFSSYGMHWVRQAPGKGLEWVAVISYDGSNKYYADSVKGRFTISRDNSKNTLYLQMNSLRAEDTAVYYCAKDRAYYYGYYYYYYGMDVWGQGTTVTVSSGGGGSGGGGSGGGGSQSVLTQPPSVSGAPGQRVTISCTGSSSNIGAGYDVHWYQQLPGTAPKLLIYGNSNRPSGVPDRFSGSKSGTSASLAITGLQAEDEADYYCATWDDSLSGPVFGGGTKVTVL | M⁻¹ s⁻¹ | 50600

API: the following record is the query input.
// query For the binder 2020EP64-C08 scFv (scFv) scFv: QMQLVQSGAEVKKPGSSVKVSCKASGGTFSSYAISWVRQAPRQGLEWMGRIIPILGIANYAQKFQGRVTITADKSTSTAYMELSSLRSEDTAVYYCASSYGGNQLWGQGTLVTVSSGGGGSGGGGSGGGGSQSVLTQPPSASGTPGQRVTISCSGSDSNIGTNTVNWYQQVPGTAPKVLIYSTHQRPSGVPDRFSASKSGTSASLAISGLQSEDEADYYCSSWDVSLNAWVFGGGTKVTVL , what kon is on record?
// result 94100
